Origin of the recorded values: patent US8513233B2

Biological target: PPAR-γ (Homo sapiens)
Assay: Transient transfection and transcription assay (luciferase reporter, U2OS cells)
Settings: 24 h treatment
QUANTITY_KIND: EC50 (µM)

>  <COMPOUND>
CC(Cc1ccc(Oc2cc(N3CCN(Cc4ccc5c(c4)OCO5)CC3)nc(N)n2)cc1)(Oc1ccccc1)C(=O)O (stereo not shown)

>  <ASSAY_TARGET>
PPAR-γ (Homo sapiens)

>  <EC50, µM>
6.46

$$$$

a = CC(Cc1ccc(Oc2cc(N3CCN(Cc4ccco4)CC3)nc(N)n2)cc1)(Oc1ccccc1)C(=O)O (stereo not shown)
b = CC(Cc1ccc(Oc2cc(N3CCN(Cc4cccc(F)c4)CC3)nc(N)n2)cc1)(Oc1ccccc1)C(=O)O (stereo not shown)
Request: Could you please tell me which of these two has the higher EC50: a or b ? Let me know the label of the one you choose.
Result: b
(b: 6.46 µM, a: 3.89 µM)

----------
Tested on: T24
Assay: Growth inhibition, modified MTT assay, T24
Format: cell-based
Conditions: Homo sapiens, T-24, mean of 3 independent tests
QUANTITY_KIND: IC50 (µM)

These solved cases illustrate the format of a correct answer.
>  <COMPOUND>
CC(Cc1ccc(Oc2cc(N3CCN(Cc4cccc(Br)c4)CC3)nc(N)n2)cc1)(Oc1ccccc1)C(=O)O (stereo not shown)

>  <IC50 (µM)>
41

$$$$
>  <COMPOUND>
CC(Cc1ccc(Oc2cc(Oc3ccccc3)nc(N3CCN(Cc4ccccc4)CC3)n2)cc1)(Oc1ccccc1)C(=O)O (stereo not shown)

>  <IC50 (µM)>
11.1

$$$$
>  <COMPOUND>
CC(Cc1ccc(Oc2cc(N3CCN(Cc4ccco4)CC3)nc(N)n2)cc1)(Oc1ccccc1)C(=O)O (stereo not shown)

>  <IC50 (µM)>
40.6

$$$$
>  <COMPOUND>
CC(Cc1ccc(Oc2cc(N3CCN(Cc4ccc(C(C)(C)C)cc4)CC3)nc(N)n2)cc1)(Oc1ccccc1)C(=O)O (stereo not shown)

>  <IC50 (µM)>
12.5

$$$$
>  <COMPOUND>
CC(Cc1ccc(Oc2cc(N3CCN(Cc4ccc(C(F)(F)F)cc4)CC3)nc(N)n2)cc1)(Oc1ccccc1)C(=O)O (stereo not shown)

>  <IC50 (µM)>
36.2

$$$$
>  <COMPOUND>
CCN(CC)c1nc(Oc2ccc(CC(C)(Oc3ccccc3)C(=O)O)cc2)cc(N2CCN(Cc3ccccc3)CC2)n1 (stereo not shown)

>  <IC50 (µM)>
21.9

$$$$

a = CC(Cc1ccc(Oc2cc(N3CCN(c4ncccn4)CC3)nc(N)n2)cc1)(Oc1ccccc1)C(=O)O (stereo not shown)
b = CCCc1ccc(C(=O)N2CCN(c3cc(Oc4ccc(CC(C)(Oc5ccccc5)C(=O)O)cc4)nc(N)n3)CC2)cc1 (stereo not shown)
c = CC(Cc1ccc(Oc2cc(N3CCN(Cc4ccccc4)CC3)nc(N3CCCCC3)n2)cc1)(Oc1ccccc1)C(=O)O (stereo not shown)
d = CN(CCOc1ccc(CC2SC(=O)NC2=O)cc1)c1ccccn1 (stereo not shown) [Rosiglitazone, reference compound]
Request: Form: Sort by [IC50] Order [ ascending ] List each label, following the requested order.
Result: c, a, b, d

----------
Tested on: T24
Test: Growth inhibition, modified MTT assay, T24
Assay type: cell-based
Conditions: Homo sapiens, T-24, mean of 3 independent tests
QUANTITY_KIND: pIC50
Remember, pIC50 is on a log scale: it is -log10 of the molar concentration.

>  <MOLECULE>
CC(Cc1ccc(Oc2cc(N3CCN(Cc4cccc(C(F)(F)F)c4)CC3)nc(N)n2)cc1)(Oc1ccccc1)C(=O)O (stereo not shown) [Compound 10]

>  <RESULT>
4.54

$$$$

Now for another entry.
Request: Please state recorded pIC50 (tested on T24) of CC(Cc1ccc(Oc2cc(N3CCN(c4cccc(Cl)c4)CC3)nc(N)n2)cc1)(Oc1ccccc1)C(=O)O (stereo not shown) [Compound 23]
Result: 4.82

----------
Tested on: T24
Experiment: Growth inhibition, modified MTT assay, T24
Type: cell-based
Conditions: Homo sapiens, T-24, mean of 3 independent tests
Experimental: The growth inhibition was evaluated by the modified MTT assay. Briefly, the cells were seeded at 1×10^4 cells/well in 96-well plates (Falcon, Calif., USA), and incubated for 24 h in […] culture media with 10% FCS. The media were then replaced by serum-free medium. […] After the removal of the supernatant, the purple-blue sediment was dissolved in 100 μL/well DMSO, and the optical densities were read on the multi-well scanning spectrophotometer (Labsystems Dragon, Finland) at 492 nm (A492). […]
pIC50: −log10 of the molar value.
Readings of pIC50 for the listed compounds

These solved cases illustrate the format of a correct answer.
>  <COMPOUND>
CC(Cc1ccc(Oc2cc(N3CCN(Cc4ccccc4)CC3)nc(N)n2)cc1)(Oc1ccccc1)C(=O)O (racemic) [Compound 2]

>  <pIC50>
4.14

$$$$
>  <COMPOUND>
CC(Cc1ccc(Oc2cc(N3CCN(Cc4cccnc4)CC3)nc(N)n2)cc1)(Oc1ccccc1)C(=O)O (stereo not shown) [Compound 39]

>  <pIC50>
< 4.30

$$$$
>  <COMPOUND>
CC(Cc1ccc(Oc2cc(N3CCN(Cc4ccccn4)CC3)nc(N)n2)cc1)(Oc1ccccc1)C(=O)O (stereo not shown) [Compound 36]

>  <pIC50>
< 4.30

$$$$

Now for another entry.
Request: Field request: pIC50 | item: COc1ccccc1C(=O)N1CCN(c2cc(Oc3ccc(CC(C)(Oc4ccccc4)C(=O)O)cc3)nc(N)n2)CC1 (stereo not shown) [Compound 25]
Result: < 4.30

----------
Molecular target: PPAR-γ (Homo sapiens, UniProt P37231)
Sequence (P37231 whole entry): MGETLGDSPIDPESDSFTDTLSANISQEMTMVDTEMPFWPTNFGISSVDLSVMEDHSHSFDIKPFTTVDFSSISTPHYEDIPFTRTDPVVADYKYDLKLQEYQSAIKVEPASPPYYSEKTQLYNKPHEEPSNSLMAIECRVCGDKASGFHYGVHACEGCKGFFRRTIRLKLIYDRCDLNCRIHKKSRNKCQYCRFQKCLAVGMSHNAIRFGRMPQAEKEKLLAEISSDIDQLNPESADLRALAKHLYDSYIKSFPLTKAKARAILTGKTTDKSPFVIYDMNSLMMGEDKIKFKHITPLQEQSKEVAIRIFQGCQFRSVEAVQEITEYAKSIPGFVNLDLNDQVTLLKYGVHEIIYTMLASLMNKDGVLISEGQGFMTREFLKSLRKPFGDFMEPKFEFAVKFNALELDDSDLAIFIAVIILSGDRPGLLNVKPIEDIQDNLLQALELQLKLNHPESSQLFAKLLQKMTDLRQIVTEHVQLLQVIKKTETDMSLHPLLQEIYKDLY
Sequence (P19793 whole entry partner): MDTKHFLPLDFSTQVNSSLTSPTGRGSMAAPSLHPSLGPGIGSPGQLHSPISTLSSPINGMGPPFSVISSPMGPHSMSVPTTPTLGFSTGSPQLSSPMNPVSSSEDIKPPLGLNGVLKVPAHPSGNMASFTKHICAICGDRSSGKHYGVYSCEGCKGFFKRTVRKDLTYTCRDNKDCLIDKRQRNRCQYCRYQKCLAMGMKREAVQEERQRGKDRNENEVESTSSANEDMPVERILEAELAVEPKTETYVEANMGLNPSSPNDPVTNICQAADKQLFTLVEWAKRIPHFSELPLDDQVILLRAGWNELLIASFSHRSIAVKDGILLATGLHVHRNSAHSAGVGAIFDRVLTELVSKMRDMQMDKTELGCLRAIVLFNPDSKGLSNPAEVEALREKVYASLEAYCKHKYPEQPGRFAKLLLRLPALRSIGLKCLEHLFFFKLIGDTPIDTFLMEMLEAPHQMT
Experiment: Transient transfection and transcription assay (luciferase reporter, U2OS cells)
Details: 24 h treatment
QUANTITY_KIND: EC50 (µM)

>  <COMPOUND>
CC(Cc1ccc(Oc2cc(N3CCN(c4cccc(Cl)c4)CC3)nc(N)n2)cc1)(Oc1ccccc1)C(=O)O (centres unmarked) [Compound 23]

>  <EC50 [µM]>
4.37

$$$$

1 = CC(Cc1ccc(Oc2cc(N3CCN(Cc4ccccc4)CC3)nc(Oc3ccccc3)n2)cc1)(Oc1ccccc1)C(=O)O (centres unmarked) [Compound 43]
2 = Cc1ccc(OC(C)(Cc2ccc(Oc3cc(N4CCN(Cc5ccccc5)CC4)nc(N)n3)cc2)C(=O)O)cc1 (centres unmarked) [Compound 31]
3 = CC(Cc1ccc(Oc2cc(N3CCN(Cc4ccc(C(C)(C)C)cc4)CC3)nc(N)n2)cc1)(Oc1ccccc1)C(=O)O (centres unmarked) [Compound 14]
Request: Rank by EC50 (largest to smallest). List each label, following the requested order.
Result: 3, 2, 1

----------
Tested on: T24
Experiment: Growth inhibition, modified MTT assay, T24
Format: cell-based
Conditions: Homo sapiens, T-24, mean of 3 independent tests
pIC50: −log10 of the molar value.
QUANTITY_KIND: pIC50

These solved cases illustrate the format of a correct answer.
>  <COMPOUND>
CC(Cc1ccc(Oc2cc(N3CCN(Cc4ccc(Cl)cc4)CC3)nc(N)n2)cc1)(Oc1ccccc1)C(=O)O (stereo not shown) [Compound 13]

>  <ASSAY_TARGET>
T24

>  <pIC50>
4.34

$$$$
>  <COMPOUND>
CC(Cc1ccc(Oc2cc(N3CCN(Cc4ccccc4)CC3)nc(N)n2)cc1)(Oc1ccc(-c2ccccc2)cc1)C(=O)O (stereo not shown) [Compound 29]

>  <ASSAY_TARGET>
T24

>  <pIC50>
4.40

$$$$
>  <COMPOUND>
Cc1ccc(OC(C)(Cc2ccc(Oc3cc(N4CCN(Cc5ccccc5)CC4)nc(N)n3)cc2)C(=O)O)cc1 (stereo not shown) [Compound 31]

>  <ASSAY_TARGET>
T24

>  <pIC50>
4.39

$$$$

a = CC(Cc1ccc(Oc2cc(N3CCN(Cc4ccccc4)CC3)nc(N3CCOCC3)n2)cc1)(Oc1ccccc1)C(=O)O (stereo not shown) [Compound 53]
b = CC(Cc1ccc(Oc2cc(N3CCN(Cc4ccc([N+](=O)[O-])cc4)CC3)nc(N)n2)cc1)(Oc1ccccc1)C(=O)O (stereo not shown) [Compound 38]
Request: Could you please tell me which of these two has the higher pIC50: a or b ? Let me know the label of the one you choose.
Result: a

----------
QUANTITY_KIND: melting point

>  <MOLECULE>
CC(Cc1ccc(Oc2cc(N3CCN(Cc4ccc([N+](=O)[O-])cc4)CC3)nc(N)n2)cc1)(Oc1ccccc1)C(=O)O (centres unmarked)

>  <melting point>
160 to 162 °C

$$$$
>  <MOLECULE>
CC(Cc1ccc(Oc2cc(N3CCN(Cc4cccc(Cl)c4)CC3)nc(N)n2)cc1)(Oc1ccccc1)C(=O)O (centres unmarked)

>  <melting point>
87 to 89 °C

$$$$
>  <MOLECULE>
CC(Cc1ccc(Oc2cc(N3CCN(Cc4ccc(F)cc4)CC3)nc(N)n2)cc1)(Oc1ccccc1)C(=O)O (centres unmarked)

>  <melting point>
107 to 109 °C

$$$$
>  <MOLECULE>
CC(Cc1ccc(Oc2cc(N3CCN(Cc4ccccc4)CC3)nc(N3CCOCC3)n2)cc1)(Oc1ccccc1)C(=O)O (centres unmarked)

>  <melting point>
127 to 129 °C

$$$$
>  <MOLECULE>
CC(Cc1ccc(Oc2cc(N3CCN(Cc4cccc(F)c4)CC3)nc(N)n2)cc1)(Oc1ccccc1)C(=O)O (centres unmarked)

>  <melting point>
113 to 115 °C

$$$$
>  <MOLECULE>
CC(Cc1ccc(Oc2cc(N3CCN(Cc4ccccc4)CC3)nc(NCc3ccccc3)n2)cc1)(Oc1ccccc1)C(=O)O (centres unmarked)

>  <melting point>
104 to 106 °C

$$$$
>  <MOLECULE>
CC(Cc1ccc(Oc2cc(N3CCN(Cc4ccccc4)CC3)nc(Oc3ccccc3)n2)cc1)(Oc1ccccc1)C(=O)O (centres unmarked)

>  <melting point>
126 to 128 °C

$$$$
>  <MOLECULE>
CC(Cc1ccc(Oc2cc(N3CCN(Cc4ccccc4)CC3)nc(N3CCCCC3)n2)cc1)(Oc1ccccc1)C(=O)O (centres unmarked)

>  <melting point>
125 to 126 °C

$$$$
>  <MOLECULE>
CC(Cc1ccc(Oc2cc(N3CCN(Cc4cccnc4)CC3)nc(N)n2)cc1)(Oc1ccccc1)C(=O)O (centres unmarked)

>  <melting point>
141 to 143 °C

$$$$
>  <MOLECULE>
CC(Cc1ccc(Oc2cc(N3CCN(Cc4ccc5c(c4)OCO5)CC3)nc(N)n2)cc1)(Oc1ccccc1)C(=O)O (centres unmarked)

>  <melting point>
190 to 192 °C

$$$$

Request: Field request: melting point | item: CC(Cc1ccc(Oc2cc(Oc3ccccc3)nc(N3CCN(Cc4ccccc4)CC3)n2)cc1)(Oc1ccccc1)C(=O)O (centres unmarked)
Result: 135 to 137 °C

Request: Field request: melting point | item: CCN(CC)c1nc(Oc2ccc(CC(C)(Oc3ccccc3)C(=O)O)cc2)cc(N2CCN(Cc3ccccc3)CC2)n1 (centres unmarked)
Result: 120 to 121 °C

Request: Field request: melting point | item: CC(Cc1ccc(Oc2cc(N3CCN(Cc4ccc(Cl)cc4)CC3)nc(N)n2)cc1)(Oc1ccccc1)C(=O)O (centres unmarked)
Result: 103 to 105 °C

Request: Field request: melting point | item: CC(Cc1ccc(Oc2cc(N3CCN(Cc4ccccc4)CC3)ncn2)cc1)(Oc1ccccc1)C(=O)O (centres unmarked)
Result: 107 to 109 °C
